As shown below, each of these molecules has a reported mortality at 5 mg/kg value.
System: Mythimna separata
Assay: Stomach toxicity against Mythimna separata (Oriental armyworm) fourth-instar larvae reared on compound pre-treated corn leaves assessed as insect mortality at 5 mg/kg measured 4 days post compound treatment
Type: functional
Parameter measured: mortality at 5 mg/kg (%)

Cc1cc(C)cc(C(=O)N(NC(=O)c2ccc3c(c2C)OC(C)C3)C(C)(C)C)c1 (stereo not drawn) :: 100
CCc1ccc(C(=O)N(N(SOc2ccc(C(=O)OC)cc2)C(=O)c2cc(C)cc(C)c2)C(C)(C)C)cc1 :: 100
Cc1cc(C)cc(C(=O)N(N(SOc2ccc(Cl)cc2)C(=O)c2ccc3c(c2C)OC(C)C3)C(C)(C)C)c1 (stereo not drawn) :: 100
CCc1ccc(C(=O)NN(C(=O)c2cc(C)cc(C)c2)C(C)(C)C)cc1 [TEBUFENOZIDE] :: 95
CCc1ccc(C(=O)N(N(SOc2ccc(OC)cc2)C(=O)c2cc(C)cc(C)c2)C(C)(C)C)cc1 :: 100
COc1cccc(C(=O)NN(C(=O)c2cc(C)cc(C)c2)C(C)(C)C)c1C [METHOXYFENOZIDE] :: 100
CCc1ccc(C(=O)N(N(SOc2cccc(Cl)c2)C(=O)c2cc(C)cc(C)c2)C(C)(C)C)cc1 :: 90
CCc1ccc(C(=O)N(N(SOc2ccccc2Br)C(=O)c2cc(C)cc(C)c2)C(C)(C)C)cc1 :: 100
